- System: Clostridioides difficile
- Experiment Description: Antimicrobial activity against daptomycin-resistant Clostridium difficile NAP1 incubated anaerobically at 37 degC for 48 hrs by agar dilution method
- Type: functional
- Condition Label: NAP1, 48 h
Property: MIC (µg/mL)

>  <Molecule>
C[C@H]1NC(=O)C(CC(=O)O)NC(=O)[C@H](CCCN)NC(=O)CNC(=O)[C@@H](NC(=O)[C@H](CC(=O)O)NC(=O)[C@H](CC(N)=O)NC(=O)[C@H](Cc2c[nH]c3ccccc23)NC(=O)CCCCC2CCCCC2)[C@@H](C)OC(=O)[C@H](CC(=O)c2ccccc2N)NC(=O)[C@H]([C@@H](C)CC(=O)O)NC(=O)[C@@H](CO)NC(=O)CNC(=O)[C@H](CC(=O)O)NC1=O (single isomer, unassigned)

>  <Property>
MIC

>  <Experimental Value>
4

$$$$

* * *

- Test system: Enterococcus faecium
- Experiment Description: Antimicrobial activity against daptomycin-resistant Enterococcus faecium ATCC 6569 incubated anaerobically at 37 degC for 48 hrs by agar dilution method
- Format: functional
- Condition Label: ATCC 6569, 48 h
Reported log10(MIC) values for a set of molecules
Property: log10(MIC) (log10 of the value in µg/mL)

>  <Molecule>
CCCOc1ccc(-c2ccc(C(=O)N[C@@H](Cc3c[nH]c4ccccc34)C(=O)N[C@@H](CC(N)=O)C(=O)N[C@@H](CC(=O)O)C(=O)N[C@@H]3C(=O)NCC(=O)N[C@@H](CCCN)C(=O)N[C@H](CC(=O)O)C(=O)N[C@H](C)C(=O)N[C@@H](CC(=O)O)C(=O)NCC(=O)N[C@H](CO)C(=O)N[C@@H]([C@@H](C)CC(=O)O)C(=O)N[C@@H](CC(=O)c4ccccc4N)C(=O)O[C@@H]3C)cc2)cc1

>  <log10(MIC)>
1.51

$$$$
>  <Molecule>
CCCCc1ccc(/C=C(\C)C(=O)N[C@@H](Cc2c[nH]c3ccccc23)C(=O)N[C@@H](CC(N)=O)C(=O)N[C@@H](CC(=O)O)C(=O)N[C@@H]2C(=O)NCC(=O)N[C@@H](CCCN)C(=O)NC(CC(=O)O)C(=O)N[C@H](C)C(=O)N[C@@H](CC(=O)O)C(=O)NCC(=O)N[C@H](CO)C(=O)N[C@@H]([C@@H](C)CC(=O)O)C(=O)N[C@@H](CC(=O)c3ccccc3N)C(=O)O[C@@H]2C)cc1 (single isomer, unassigned)

>  <log10(MIC)>
1.51

$$$$
>  <Molecule>
CCCCCCOc1ccc(-c2csc(C(=O)N[C@@H](Cc3c[nH]c4ccccc34)C(=O)N[C@@H](CC(N)=O)C(=O)N[C@@H](CC(=O)O)C(=O)N[C@@H]3C(=O)NCC(=O)N[C@@H](CCCN)C(=O)NC(CC(=O)O)C(=O)N[C@H](C)C(=O)N[C@@H](CC(=O)O)C(=O)NCC(=O)N[C@H](CO)C(=O)N[C@@H]([C@@H](C)CC(=O)O)C(=O)N[C@@H](CC(=O)c4ccccc4N)C(=O)O[C@@H]3C)c2)cc1 (single isomer, unassigned)

>  <log10(MIC)>
0.30

$$$$
>  <Molecule>
CCCCCOc1ccc(-c2ccc(C(=O)N[C@@H](Cc3c[nH]c4ccccc34)C(=O)N[C@@H](CC(N)=O)C(=O)N[C@@H](CC(=O)O)C(=O)N[C@@H]3C(=O)NCC(=O)N[C@@H](CCCN)C(=O)N[C@H](CC(=O)O)C(=O)N[C@H](C)C(=O)N[C@@H](CC(=O)O)C(=O)NCC(=O)N[C@H](CO)C(=O)N[C@@H]([C@@H](C)CC(=O)O)C(=O)N[C@@H](CC(=O)c4ccccc4N)C(=O)O[C@@H]3C)cc2)cc1

>  <log10(MIC)>
0.30

$$$$
>  <Molecule>
CCCCCCCCCCCCCCC(=O)N[C@@H](Cc1c[nH]c2ccccc12)C(=O)N[C@@H](CC(N)=O)C(=O)N[C@@H](CC(=O)O)C(=O)N[C@@H]1C(=O)NCC(=O)N[C@@H](CCCN)C(=O)NC(CC(=O)O)C(=O)N[C@H](C)C(=O)N[C@@H](CC(=O)O)C(=O)NCC(=O)N[C@H](CO)C(=O)N[C@@H]([C@@H](C)CC(=O)O)C(=O)N[C@@H](CC(=O)c2ccccc2N)C(=O)O[C@@H]1C (single isomer, unassigned)

>  <log10(MIC)>
0.60

$$$$
>  <Molecule>
CCCCCCCCCCCCC(=O)N[C@@H](Cc1c[nH]c2ccccc12)C(=O)N[C@@H](CC(N)=O)C(=O)N[C@@H](CC(=O)O)C(=O)N[C@@H]1C(=O)NCC(=O)N[C@@H](CCCN)C(=O)NC(CC(=O)O)C(=O)N[C@H](C)C(=O)N[C@@H](CC(=O)O)C(=O)NCC(=O)N[C@H](CO)C(=O)N[C@@H]([C@@H](C)CC(=O)O)C(=O)N[C@@H](CC(=O)c2ccccc2N)C(=O)O[C@@H]1C (single isomer, unassigned)

>  <log10(MIC)>
0.90

$$$$
>  <Molecule>
CCCCCCOc1ccc(-c2ccc(C(=O)N[C@@H](Cc3c[nH]c4ccccc34)C(=O)N[C@@H](CC(N)=O)C(=O)N[C@@H](CC(=O)O)C(=O)N[C@@H]3C(=O)NCC(=O)N[C@@H](CCCN)C(=O)N[C@H](CC(=O)O)C(=O)N[C@H](C)C(=O)N[C@@H](CC(=O)O)C(=O)NCC(=O)N[C@H](CO)C(=O)N[C@@H]([C@@H](C)CC(=O)O)C(=O)N[C@@H](CC(=O)c4ccccc4N)C(=O)O[C@@H]3C)cc2)cc1

>  <log10(MIC)>
0.00

$$$$
>  <Molecule>
CCCCCCCCc1ccc(C(=O)N[C@@H](Cc2c[nH]c3ccccc23)C(=O)N[C@@H](CC(N)=O)C(=O)N[C@@H](CC(=O)O)C(=O)N[C@@H]2C(=O)NCC(=O)N[C@@H](CCCN)C(=O)N[C@H](CC(=O)O)C(=O)N[C@H](C)C(=O)N[C@@H](CC(=O)O)C(=O)NCC(=O)N[C@H](CO)C(=O)N[C@@H]([C@@H](C)CC(=O)O)C(=O)N[C@@H](CC(=O)c3ccccc3N)C(=O)O[C@@H]2C)cc1

>  <log10(MIC)>
0.60

$$$$
